Data provenance: patent US20250011299A1

ASSAY_SYSTEM: human ALK5 (Homo sapiens)
Construct: human ALK5 (recombinant TGF β1 N-term GST-tagged, 80-end); GST (N); purchased
TEST_NAME: ADP-GLO Kinases assay of ALK5 enzymatic activity
Format: biochemical
COND: purified recombinant human ALK5, TGFβ1 peptide substrate, pIC50 converted to pKi by Cheng-Prusoff, high ATP protocol (15 μM) for very potent compounds, 25° C.
pKi: −log10 of the molar value.
READOUT: pKi

> print(dat)
                                   compound         value
1  CN1CCN(CCC(=O)Nc2cc(Nc3cc(-c4cc(Cl)ccc4F)nnc3OCC3COC(=O)O3)ccn2)CC1 (stereo not shown) [Example 79]       ≥ 10.00
2  COC(=O)NCCN1CCN(CCC(=O)Nc2cc(Nc3cc(-c4cc(Cl)ccc4F)nnc3SC)ccn2)CC1 [Example 21]       ≥ 10.00
3  CN1CC2CCC1CN(CC(=O)Nc1cc(Nc3cc(-c4cc(Cl)ccc4F)nnc3SCCO)ccn1)C2 (stereo not shown) [Example 82]       ≥ 10.00
4  COC(=O)COc1nnc(-c2cc(Cl)ccc2F)cc1Nc1ccnc(NC(=O)CCN2CCN(C)CC2)c1 [Example 15]  9.50 to 9.90

###

ASSAY_SYSTEM: human ALK5 (Homo sapiens)
Construct: human ALK5 (recombinant TGF β1 N-term GST-tagged, 80-end); GST (N)
TEST_NAME: ADP-GLO Kinases assay of ALK5 enzymatic activity
COND: purified recombinant human ALK5, TGFβ1 peptide substrate, pIC50 converted to pKi by Cheng-Prusoff, high ATP protocol (15 μM) for very potent compounds, 25° C.
Listed next: entries and their corresponding Ki.
READOUT: Ki

> print(dat)
                                   compound  readout             value
1  COc1nnc(-c2cc(Cl)ccc2F)cc1Nc1ccc2ncsc2c1 [Example C1, reference compound]       Ki           6.31 nM
2  CNc1nnc(-c2cc(Cl)ccc2F)cc1Nc1ccnc(NC(=O)CCN2CCN(C)CC2)c1 [Example 29]       Ki          ≤ 0.1 nM
3  Nc1cc(Nc2cc(-c3cc(Cl)ccc3F)nnc2OCC(F)F)ccn1 [Example 53]       Ki  0.398 to 3.16 nM
4  CN1CCN(CCC(=O)Nc2cc(Nc3cc(-c4cc(Cl)ccc4F)nnc3OCC(O)CO)ccn2)CC1 (stereo not shown) [Example 78]       Ki          ≤ 0.1 nM

###

ASSAY_SYSTEM: human ALK5 (Homo sapiens, UniProt P36897)
Construct: human ALK5 (recombinant TGF β1 N-term GST-tagged, 80-end); GST (N)
Sequence (P36897 80-503 limits assumed): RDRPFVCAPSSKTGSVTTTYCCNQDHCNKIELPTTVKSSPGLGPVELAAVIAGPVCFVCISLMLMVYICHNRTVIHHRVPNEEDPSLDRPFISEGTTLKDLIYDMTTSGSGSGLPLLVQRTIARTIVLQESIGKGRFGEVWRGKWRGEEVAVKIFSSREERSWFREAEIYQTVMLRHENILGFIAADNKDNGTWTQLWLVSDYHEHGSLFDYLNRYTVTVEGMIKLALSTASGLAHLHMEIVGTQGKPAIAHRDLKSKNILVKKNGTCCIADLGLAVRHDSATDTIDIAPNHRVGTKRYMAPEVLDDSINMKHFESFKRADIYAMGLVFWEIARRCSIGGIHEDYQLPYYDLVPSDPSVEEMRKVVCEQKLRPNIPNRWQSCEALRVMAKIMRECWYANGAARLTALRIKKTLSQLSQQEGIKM
TEST_NAME: ADP-GLO Kinases assay of ALK5 enzymatic activity
COND: purified recombinant human ALK5, TGFβ1 peptide substrate, pIC50 converted to pKi by Cheng-Prusoff, high ATP protocol (15 μM) for very potent compounds, 25° C.

COMPOUND	Ki
CN1CCN([C@H]2C[C@@H](C(=O)Nc3cc(Nc4cc(-c5cc(Cl)ccc5F)nnc4N(C)CC4(C)CCOC4=O)ccn3)C2)CC1 (single isomer, unassigned) [Example 136]	0.126 to 0.316 nM
CN1CCN(CCC(=O)Nc2cc(Nc3cc(-c4cc(Cl)ccc4F)nnc3[S+](C)[O-])ccn2)CC1 (stereo not shown)	0.126 to 0.316 nM
COc1nnc(-c2cc(Cl)ccc2F)cc1Nc1ccnc(NC(=O)CCN2CCN(CC(F)(F)F)CC2)c1	≤ 0.1 nM
CN1CCN([C@H]2C[C@@H](C(=O)Nc3cc(Nc4cc(-c5cc(Cl)ccc5F)nnc4SCCO)ncn3)C2)CC1	0.126 to 0.316 nM

###

Here the recorded pKi is given for each entry.
ASSAY_SYSTEM: human ALK5 (Homo sapiens)
Construct: human ALK5 (recombinant TGF β1 N-term GST-tagged, 80-end); GST (N)
TEST_NAME: ADP-GLO Kinases assay of ALK5 enzymatic activity
COND: purified recombinant human ALK5, TGFβ1 peptide substrate, pIC50 converted to pKi by Cheng-Prusoff, high ATP protocol (15 μM) for very potent compounds, 25° C.
pKi: −log10 of the molar value.

MOLECULE	pKi
COC(=O)C1CN(c2nnc(-c3cc(Cl)ccc3F)cc2Nc2ccnc(NC(=O)CCN3CCN(C)CC3)c2)C1 [Example 98]	9.50 to 9.90
CN1CCN(CCC(=O)Nc2cc(Nc3cc(-c4cc(Cl)ccc4F)nnc3OCC(F)F)ccn2)CC1 [Example 52]	9.50 to 9.90
CN1CCN(CCC(=O)Nc2cc(Nc3cc(-c4cc(Cl)ccc4F)nnc3N(C)C[C@@]3(C)CCOC3=O)ccn2)CC1 (racemic) [Example 127]	≥ 10.00
CN1CCN(CCC(=O)Nc2cc(Nc3cc(-c4cc(Cl)ccc4F)nnc3N(C)CC3(CO)CCOC3=O)ccn2)CC1 (stereo not shown) [Example 152]	≥ 10.00
CN1CCN(CCC(=O)Nc2cc(Nc3cc(-c4cc(Cl)ccc4F)nnc3N(C)CC3CCOC3=O)ccn2)CC1 (stereo not shown) [Example 108]	≥ 10.00
CC(C)OC(=O)C1CCN1c1nnc(-c2cc(Cl)ccc2F)cc1Nc1ccnc(NC(=O)CCN2C[C@@H](C)N[C@@H](C)C2)c1 (mixture of isomers) [Example 184]	8.50 to 9.40
CN1CCN([C@H]2C[C@@H](C(=O)Nc3cc(Nc4cc(-c5cc(Cl)ccc5F)nnc4SCCO)ccn3)C2)CC12CC2 [Example 90]	≥ 10.00
CN1CCN([C@@H]2CC[C@@H](C(=O)Nc3cc(Nc4cc(-c5cc(Cl)ccc5F)nnc4SCCO)ccn3)C2)CC1 (single isomer, unassigned; enantiomer 1) [Example 189]	≥ 10.00
CN1CCN(CCC(=O)Nc2cc(Nc3cc(-c4cc(Cl)ccc4F)nnc3SCc3ccc(C(=O)O)cc3)ccn2)CC1 [Example 203]	≥ 10.00
CN1CCN(CCC(=O)Nc2cc(Nc3cc(-c4cc(Cl)ccc4F)nnc3SC3(C)CCOC3=O)ccn2)CC1 (racemic) [Example 192]	9.50 to 9.90
CN(C)CCOC(=O)c1cccc(CSc2nnc(-c3cc(Cl)ccc3F)cc2Nc2ccnc3[nH]ccc23)c1 [Example 207]	9.50 to 9.90
CN1CCN(CCOc2ccc3c(Nc4cc(-c5cc(Cl)ccc5F)nnc4OCCNS(C)(=O)=O)ccnc3c2)CC1 [Example 6]	≥ 10.00
COC(=O)C1CN(CC(=O)Nc2cc(Nc3cc(-c4cc(Cl)ccc4F)nnc3OCCN(C)C)ccn2)CCN1C (stereo not shown) [Example 12]	9.50 to 9.90

###

Measured pKi by item
ASSAY_SYSTEM: human ALK5 (Homo sapiens)
Construct: human ALK5 (recombinant TGF β1 N-term GST-tagged, 80-end); GST (N)
TEST_NAME: ADP-GLO Kinases assay of ALK5 enzymatic activity
COND: purified recombinant human ALK5, TGFβ1 peptide substrate, pIC50 converted to pKi by Cheng-Prusoff, high ATP protocol (15 μM) for very potent compounds, 25° C.
Method: The enzymatic activity of compounds of the present invention was monitored measuring the formation of ADP using the ADP-GLO Kinases assay. […] After an incubation of 120 min, the reaction was stopped, and ADP production detected with ADP-Glo kit according to manufacturer's indications. […] After an incubation of 60 min, the kinase reaction was stopped, and ADP production detected with ADP-Glo kit according to manufacturer's indications. […]
pKi: −log10 of the molar value.
READOUT: pKi

> print(dat)
                                   compound         value
1  CN1CCCN(CCC(=O)Nc2cc(Nc3cc(-c4cc(Cl)ccc4F)nnc3SCCO)ccn2)CC1 [Example 84]       ≥ 10.00
2  CN1CCN(CCC(=O)Nc2cc(Nc3cc(-c4cc(Cl)ccc4F)nnc3SCCOCCO)ccn2)CC1 [Example 194]       ≥ 10.00
3  CN1CCN(CCOc2ccc3c(Nc4cc(-c5cc(Cl)ccc5F)nnc4OCCN)ccnc3c2)CC1 [Example 5]  9.50 to 9.90
4  CN1CCN([C@H]2C[C@@H](C(=O)Nc3cc(Nc4cc(-c5cc(Cl)ccc5F)nnc4SCC4COC(C)(C)O4)ccn3)C2)CC1 (stereo partly shown) [Example 115]       ≥ 10.00
5  CN1CCN(CCC(=O)Nc2cc(Nc3cc(-c4cc(Cl)ccc4F)nnc3SCC3(C)CCOC3=O)ccn2)CC1 (stereo not shown) [Example 197]  9.50 to 9.90
6  C[N+](C)(C)CCCOc1nnc(-c2cc(Cl)ccc2F)cc1Nc1ccnc(NC(=O)C2CC2)c1 [Example 58]  8.50 to 9.40
7  COC(=O)c1cc2c(Nc3cc(-c4cc(Cl)ccc4F)nnc3OCCCN(C)C)ccnc2[nH]1 [Example 10]  8.50 to 9.40
